- experimental system: Histamine H1 receptor (Cavia porcellus)
- procedure text: Concentration required for agonistic activity against histamine in guinea pig ileum
- Format: functional, tissue-based
measured quantity: Concentration (µM)
# number only, unit µM dropped from output

Example entries and their recorded answers appear below.
Exercise: Look at this molecule and give its reported Concentration. c1ccc(C(CCc2nc(CCNCCCc3ccncc3)c[nH]2)c2ccccc2)cc1
Solution: 10

Exercise: Look at this molecule and give its reported Concentration. c1ccc(C(CCc2nc(CCNCCc3cccnc3)c[nH]2)c2ccccc2)cc1
Solution: 10

Exercise: Look at this molecule and give its reported Concentration. c1ccc(C(CCc2nc(CCNCCCCCc3ccccn3)c[nH]2)c2ccccc2)cc1
Solution: 3

Moving on to the next molecule.
Exercise: Look at this molecule and give its reported Concentration. c1ccc(C(CCc2nc(CCNCCCCc3c[nH]cn3)c[nH]2)c2ccccc2)cc1
Solution: 10

---

- experimental system: Histamine H3 receptor (Cavia porcellus, UniProt Q9JI35)
- Sequence (Q9JI35 whole entry): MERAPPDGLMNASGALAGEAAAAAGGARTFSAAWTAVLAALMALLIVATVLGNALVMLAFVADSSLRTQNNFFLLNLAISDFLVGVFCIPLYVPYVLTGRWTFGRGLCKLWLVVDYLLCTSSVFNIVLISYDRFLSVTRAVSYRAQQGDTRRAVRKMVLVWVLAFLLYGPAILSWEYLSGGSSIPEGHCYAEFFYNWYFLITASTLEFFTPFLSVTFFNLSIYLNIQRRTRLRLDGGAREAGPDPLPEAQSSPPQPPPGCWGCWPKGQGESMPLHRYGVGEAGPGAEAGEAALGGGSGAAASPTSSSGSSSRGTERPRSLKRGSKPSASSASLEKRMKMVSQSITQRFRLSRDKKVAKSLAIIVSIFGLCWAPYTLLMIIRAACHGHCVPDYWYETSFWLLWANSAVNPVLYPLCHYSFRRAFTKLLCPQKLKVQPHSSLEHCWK
- procedure text: Tested for Antagonistic activity at histamine H3 receptor in guinea pig ileal longitudinal muscle in the presence of mepyramine at a concentration of 1-3 micro M
- Assay type: functional
- test parameters: read-out: pA2 (converted)
Known Kb of a selection of compounds

Example entries and their recorded answers appear below.
Exercise: Look at this compound and give its reported Kb. c1ccc(C(CCc2nc(CCNCCCc3ccccn3)c[nH]2)c2ccccc2)cc1
Solution: > 0.316 µM

Exercise: Look at this compound and give its reported Kb. c1ccc(C(CCc2nc(CCNCCCc3c[nH]cn3)c[nH]2)c2ccccc2)cc1
Solution: 0.123 µM

Exercise: Look at this compound and give its reported Kb. c1ccc(C(CCc2nc(CCNCCc3ccncc3)c[nH]2)c2ccccc2)cc1
Solution: > 0.501 µM

Exercise: Look at this compound and give its reported Kb. c1ccc(C(CCc2nc(CCNCCc3cccnc3)c[nH]2)c2ccccc2)cc1
Solution: > 0.501 µM

Exercise: Look at this compound and give its reported Kb. c1ccc(C(CCc2nc(CCNCCc3cnc[nH]3)c[nH]2)c2ccccc2)cc1
Solution: > 1 µM

Exercise: Look at this compound and give its reported Kb. c1ccc(C(CCc2nc(CCNCCCCCc3cccnc3)c[nH]2)c2ccccc2)cc1
Solution: > 0.316 µM

Exercise: Look at this compound and give its reported Kb. c1ccc(C(CCc2nc(CCNCCCCc3ccccn3)c[nH]2)c2ccccc2)cc1
Solution: > 0.501 µM

Exercise: Look at this compound and give its reported Kb. c1ccc(C(CCc2nc(CCNCCc3ccccn3)c[nH]2)c2ccccc2)cc1
Solution: > 0.501 µM

Exercise: Look at this compound and give its reported Kb. c1ccc(C(CCc2nc(CCNCCCCc3c[nH]cn3)c[nH]2)c2ccccc2)cc1
Solution: 0.0102 µM

Moving on to the next compound.
Exercise: Look at this compound and give its reported Kb. c1ccc(C(CCc2nc(CCNCCCCCc3ccccn3)c[nH]2)c2ccccc2)cc1
Solution: > 0.316 µM

---

- experimental system: Muscarinic acetylcholine receptor M3 (Cavia porcellus, UniProt Q8VH26)
- Sequence (Q8VH26 whole entry): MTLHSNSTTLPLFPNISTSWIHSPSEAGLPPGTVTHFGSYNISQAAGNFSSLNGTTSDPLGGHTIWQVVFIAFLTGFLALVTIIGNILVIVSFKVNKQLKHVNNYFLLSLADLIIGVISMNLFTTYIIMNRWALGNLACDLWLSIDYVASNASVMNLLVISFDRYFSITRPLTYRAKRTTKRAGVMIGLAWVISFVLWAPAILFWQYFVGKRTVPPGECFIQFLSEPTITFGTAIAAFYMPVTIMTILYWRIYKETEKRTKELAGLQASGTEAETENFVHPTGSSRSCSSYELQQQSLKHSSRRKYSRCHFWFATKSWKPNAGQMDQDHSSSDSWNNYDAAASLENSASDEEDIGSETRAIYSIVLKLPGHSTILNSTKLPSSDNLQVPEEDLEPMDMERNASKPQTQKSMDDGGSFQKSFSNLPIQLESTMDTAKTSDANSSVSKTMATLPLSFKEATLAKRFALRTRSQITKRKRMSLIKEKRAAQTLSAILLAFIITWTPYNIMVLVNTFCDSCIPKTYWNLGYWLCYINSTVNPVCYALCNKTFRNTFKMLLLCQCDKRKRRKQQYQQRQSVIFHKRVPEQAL
- procedure text: Antagonistic activity for carbachol induced contractions in guinea pig ileum against Muscarinic acetylcholine receptor M3 in the presence of mepyramine at a concentration of 1-3 micro M
- Assay type: functional, tissue-based
- test parameters: read-out: pA2 (converted)
Parameter threshold = 700 nM. Response is rule met when Kb meets or exceeds it, else rule not met.

Examples with answers:
Exercise: Could you tell me if the measured Kb of c1ccc(C(CCc2nc(CCNCCc3ccncc3)c[nH]2)c2ccccc2)cc1 reaches 700 nM or more?
Solution: rule met

Exercise: Could you tell me if the measured Kb of c1ccc(C(CCc2nc(CCNCCCCCc3ccccn3)c[nH]2)c2ccccc2)cc1 reaches 700 nM or more?
Solution: rule not met

Exercise: Could you tell me if the measured Kb of c1ccc(C(CCc2nc(CCNCCCc3ccccn3)c[nH]2)c2ccccc2)cc1 reaches 700 nM or more?
Solution: rule not met

Exercise: Could you tell me if the measured Kb of c1ccc(C(CCc2nc(CCNCCCCc3ccccn3)c[nH]2)c2ccccc2)cc1 reaches 700 nM or more?
Solution: rule met

Exercise: Could you tell me if the measured Kb of c1ccc(C(CCc2nc(CCNCCc3ccccn3)c[nH]2)c2ccccc2)cc1 reaches 700 nM or more?
Solution: rule met

---
Exercise: Could you tell me if the measured Kb of c1ccc(C(CCc2nc(CCNCCCCCc3cccnc3)c[nH]2)c2ccccc2)cc1 reaches 700 nM or more?
Solution: rule not met

Exercise: Could you tell me if the measured Kb of c1ccc(C(CCc2nc(CCNCCc3cccnc3)c[nH]2)c2ccccc2)cc1 reaches 700 nM or more?
Solution: rule met

Exercise: Could you tell me if the measured Kb of c1ccc(C(CCc2nc(CCNCCCc3c[nH]cn3)c[nH]2)c2ccccc2)cc1 reaches 700 nM or more?
Solution: rule met

Exercise: Could you tell me if the measured Kb of c1ccc(C(CCc2nc(CCNCCc3cnc[nH]3)c[nH]2)c2ccccc2)cc1 reaches 700 nM or more?
Solution: rule met

Exercise: Could you tell me if the measured Kb of c1ccc(C(CCc2nc(CCNCCCCc3c[nH]cn3)c[nH]2)c2ccccc2)cc1 reaches 700 nM or more?
Solution: rule not met

---

Known EC50 of a selection of compounds
- experimental system: Histamine H1 receptor (Rattus norvegicus, UniProt P31390)
- Sequence (P31390 whole entry): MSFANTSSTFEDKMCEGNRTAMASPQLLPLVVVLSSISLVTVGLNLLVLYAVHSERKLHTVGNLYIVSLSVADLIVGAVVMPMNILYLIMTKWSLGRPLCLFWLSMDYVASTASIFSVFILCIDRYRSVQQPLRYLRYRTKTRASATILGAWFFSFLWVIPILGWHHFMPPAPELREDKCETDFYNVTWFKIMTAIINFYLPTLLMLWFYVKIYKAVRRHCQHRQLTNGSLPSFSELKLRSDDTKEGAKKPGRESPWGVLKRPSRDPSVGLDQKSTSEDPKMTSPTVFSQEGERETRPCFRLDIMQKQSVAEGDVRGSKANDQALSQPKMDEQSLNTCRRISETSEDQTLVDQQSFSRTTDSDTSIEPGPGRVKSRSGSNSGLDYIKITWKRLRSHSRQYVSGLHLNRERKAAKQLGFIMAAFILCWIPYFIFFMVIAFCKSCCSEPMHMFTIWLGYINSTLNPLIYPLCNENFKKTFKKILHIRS
- procedure text: Effective concentration against histamine H1 receptor in rat aorta
# number only, unit nM dropped from output

Exercise: Look at this compound and give its reported EC50. c1ccc(C(CCc2nc(CCNCCCCc3ccccn3)c[nH]2)c2ccccc2)cc1
Solution: 240

Moving on to the next compound.
Exercise: Look at this compound and give its reported EC50. c1ccc(C(CCc2nc(CCNCCc3cnc[nH]3)c[nH]2)c2ccccc2)cc1
Solution: 295

---

- experimental system: Histamine H1 receptor (Cavia porcellus, UniProt P31389)
- procedure text: Effective concentration against histamine H1 receptor in guinea pig ileum
- Type: tissue-based
Cut-off 20 nM on EC50: below means rule met, at or above means rule not met.

Examples with answers:
Exercise: Threshold test, EC50 < 20 nM: c1ccc(C(CCc2nc(CCNCCCCCc3cccnc3)c[nH]2)c2ccccc2)cc1
Solution: rule not met

Exercise: Threshold test, EC50 < 20 nM: c1ccc(C(CCc2nc(CCNCCc3cccnc3)c[nH]2)c2ccccc2)cc1
Solution: rule not met

Exercise: Threshold test, EC50 < 20 nM: c1ccc(C(CCc2nc(CCNCCCc3ccncc3)c[nH]2)c2ccccc2)cc1
Solution: rule not met

Exercise: Threshold test, EC50 < 20 nM: c1ccc(C(CCc2nc(CCNCCCCc3cccnc3)c[nH]2)c2ccccc2)cc1
Solution: rule met

Exercise: Threshold test, EC50 < 20 nM: c1ccc(C(CCc2nc(CCNCCc3ccccn3)c[nH]2)c2ccccc2)cc1
Solution: rule not met

Exercise: Threshold test, EC50 < 20 nM: c1ccc(C(CCc2nc(CCNCCCCc3ccccn3)c[nH]2)c2ccccc2)cc1
Solution: rule met

Exercise: Threshold test, EC50 < 20 nM: c1ccc(C(CCc2nc(CCNCCCc3cccnc3)c[nH]2)c2ccccc2)cc1
Solution: rule not met

Exercise: Threshold test, EC50 < 20 nM: c1ccc(C(CCc2nc(CCNCCCCCc3ccncc3)c[nH]2)c2ccccc2)cc1
Solution: rule not met

---
Exercise: Threshold test, EC50 < 20 nM: c1ccc(C(CCc2nc(CCNCCCCc3c[nH]cn3)c[nH]2)c2ccccc2)cc1
Solution: rule not met

Exercise: Threshold test, EC50 < 20 nM: c1ccc(C(CCc2nc(CCNCCCc3c[nH]cn3)c[nH]2)c2ccccc2)cc1
Solution: rule met

Exercise: Threshold test, EC50 < 20 nM: c1ccc(C(CCc2nc(CCNCCCCc3ccncc3)c[nH]2)c2ccccc2)cc1
Solution: rule not met

Exercise: Threshold test, EC50 < 20 nM: c1ccc(C(CCc2nc(CCNCCCCCc3ccccn3)c[nH]2)c2ccccc2)cc1
Solution: rule met

Exercise: Threshold test, EC50 < 20 nM: c1ccc(C(CCc2nc(CCNCCc3cnc[nH]3)c[nH]2)c2ccccc2)cc1
Solution: rule met

Exercise: Threshold test, EC50 < 20 nM: c1ccc(C(CCc2nc(CCNCCCc3ccccn3)c[nH]2)c2ccccc2)cc1
Solution: rule not met

Exercise: Threshold test, EC50 < 20 nM: c1ccc(C(CCc2nc(CCNCCc3ccncc3)c[nH]2)c2ccccc2)cc1
Solution: rule not met

---

- experimental system: Histamine H1 receptor (Cavia porcellus) (UniProt P31389)
- Sequence (P31389 whole entry): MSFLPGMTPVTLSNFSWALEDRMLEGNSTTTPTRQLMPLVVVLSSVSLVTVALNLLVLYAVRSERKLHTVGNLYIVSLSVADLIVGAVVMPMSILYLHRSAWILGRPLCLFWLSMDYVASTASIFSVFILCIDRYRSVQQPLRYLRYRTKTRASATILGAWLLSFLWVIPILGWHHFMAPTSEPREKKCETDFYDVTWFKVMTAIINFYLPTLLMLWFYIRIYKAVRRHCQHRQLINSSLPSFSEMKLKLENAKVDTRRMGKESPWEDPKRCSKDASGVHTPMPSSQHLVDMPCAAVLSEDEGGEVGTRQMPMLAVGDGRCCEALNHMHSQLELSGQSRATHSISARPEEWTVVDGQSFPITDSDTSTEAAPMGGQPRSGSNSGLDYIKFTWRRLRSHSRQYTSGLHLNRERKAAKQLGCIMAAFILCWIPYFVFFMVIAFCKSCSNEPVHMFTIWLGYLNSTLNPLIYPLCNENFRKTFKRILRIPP
- procedure text: Concentration required for agonistic activity against histamine in guinea pig ileum
- Type: functional, tissue-based
Known Concentration of a selection of compounds
# number only, unit µM dropped from output

Example entries and their recorded answers appear below.
Exercise: Look at this compound and give its reported Concentration. c1ccc(C(CCc2nc(CCNCCCCc3cccnc3)c[nH]2)c2ccccc2)cc1
Solution: 3

Exercise: Look at this compound and give its reported Concentration. c1ccc(C(CCc2nc(CCNCCCc3ccccn3)c[nH]2)c2ccccc2)cc1
Solution: 3

Moving on to the next compound.
Exercise: Look at this compound and give its reported Concentration. c1ccc(C(CCc2nc(CCNCCCc3cccnc3)c[nH]2)c2ccccc2)cc1
Solution: 10

Values from ChEMBL document CHEMBL1145924
